meta.source: the supplement of paper PMC10127200

- System: A549
- EXPERIMENT NOTES: Euclidean distance of Cell Painting phenotypic profile (signed KS, 77 features) to DMSO centroid (dimensionless distance); 5 or 10 uM (library dependent); higher = stronger phenotypic change vs DMSO (phenoactivity)
- ASSAY CONDITIONS: 48 h
Label scheme for Euclidean distance: lower than 1 is false, 1 and above is true.

>>> class_label("CCc1cc(C(N)=S)ccn1 [Ethionamide]")
"false"
>>> class_label("N#Cc1cc(-c2n[nH]c(-c3ccncc3)n2)ccn1")
"true"
>>> class_label("O=C(O)/C=C/c1cnc[nH]1")
"false"
>>> class_label("Nc1cc(C(F)(F)F)c(-c2nc(N3CCOCC3)nc(N3CCOCC3)n2)cn1")
"true"
>>> class_label("NS(=O)(=O)c1cc2c(cc1Cl)NC(C(Cl)Cl)NS2(=O)=O (stereo not given) [Trichlormethiazide]")
"false"
